Please go through the items and note down their GI50.
tested on: KM12; assay: NCI tumour cell line growth inhibition, 48 h
Calls of active or inactive are those of the source. No stated cut-off is given here; in the data, active = GI50 up to about 1.1 µM and inactive = higher.

CCOC(=O)c1ccc(N2C(=O)/C(=C\OC)c3ccccc3C2=O)cc1	42.6 µM (inactive)

Give GI50 for each listed item.
1. Nc1ccc(C(=O)O)cc1.Nc1nc(N)c2nc[nH]c2n1
2. COc1cc(CC(=O)O)c([N+](=O)[O-])cc1OC
3. CCOC(=O)C1(C(=O)OCC)C[C@]23OCCC(=O)[C@H]2[C@H]2C(=O)OC(C)(C)O[C@]23C1
4. C/C(=C\c1ccccc1)C(=O)CCN1CCOCC1

Solution:
["22.3 µM (inactive)", "> 100 µM (inactive)", "> 100 µM (inactive)", "14.9 µM (inactive)"]
